SYSTEM_TESTED: T1, hIL-6R-hFc (human, UniProt P08887 20-358)
T1 construct: also called dimeric hIL-6R; Dimer; not shown: human Fc (hFc)
T1 sequence: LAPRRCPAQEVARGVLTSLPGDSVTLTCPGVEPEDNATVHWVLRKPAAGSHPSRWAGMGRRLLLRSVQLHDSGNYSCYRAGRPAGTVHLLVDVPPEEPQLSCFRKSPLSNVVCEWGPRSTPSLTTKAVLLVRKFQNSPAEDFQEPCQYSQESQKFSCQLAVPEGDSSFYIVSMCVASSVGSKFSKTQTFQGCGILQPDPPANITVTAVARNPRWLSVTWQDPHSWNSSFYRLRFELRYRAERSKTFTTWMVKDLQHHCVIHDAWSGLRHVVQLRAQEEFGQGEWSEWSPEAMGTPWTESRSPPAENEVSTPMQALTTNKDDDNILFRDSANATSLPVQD
ASSAY_OVERVIEW: blocking ELISA: 100 pM hIL-6R-hFc premixed with varied antibody, free hIL-6R-hFc captured on hIL-6-coated plate
RECORDED_METRIC: IC50 (nM)
Dear colleague, please return just the value in nM, with no unit written.

| BINDER | IC50, nM |
| --- | --- |
| VV6A9-5 (antibody, V domains shown, Human variable regions with mouse constant region; also called VV6A9-5 mIgG2a) VH: EVQLVESGGGLVQPGRSLRLSCAASGFTFDDYALHWVRQAPGKGLEWVSGVSWNGGRIGYADSVKGRFTISRDNAKNSLFLQMNSLRVEDTALYYCAKGRDAFDIWGQGTLVTVSS VL: DIQMTQSPSSVSASVGDRVTITCRASQGISSWLAWYQQKPGKAPKLLIYAASSLQSGVPSRFSGSGSGTDFTLTISSLQPEDFATYYCQHAYSFPYTFGQGTKLEIK | 0.35 |
| VV3D8-4 (antibody, V domains shown, Human variable regions with mouse constant region) VH: EVQLVESGGGLVQPGRSLRLSCAASGFTFDDYALHWVRQAPGKGLEWVSGISWNSGRIGYADSVKGRFTISRDNAKNSLFLQMNSLRAEDTALYYCAKGRDAFDIWGQGTLVTVSS VL: DIQMTQSPSSVSASVGDRVTITCRASQGISSWLAWYQQKPGKAPKLLIYAASSLQSGVPSRFSGSGSGTDFTLTISSLQPEDFATYYCQQANSFPYTFGQGTKLEIK | 0.61 |
| VQ8A9-6 (antibody, V domains shown, Human variable regions with mouse constant region (hybridoma-derived chimeric antibody); also called VQ8A9-6 mIgG1) VH: EVQLVESGGNLVQPGRSLRLSCAASGFIFDDYAMHWVRQAPGKGLEWVSGISWNSGSIGYADSVKGRFTISRDNAKNSLYLQMNSLRAEDTALYYCAKDGGSSWLPFVYYYGMDVWGQGTTVTVSS VL: EIVMTQSPATLSVSPGERATLSCRASQSISSNFAWYQQKPGQAPRLLIYGASTRATGIPARFSGSGSGTDFTLTISSLQSEDFAVYYCQQYSSWPPYTFGQGTKLEIK | 0.39 |
| VV1G4-7 (antibody, IgG2a, V domains shown, Human variable regions with mouse constant region) VH: QVQLVQSGAEVKEPGASVKVSCKASGYTFTSYDIIWVRQATGQGLEWMGWMNPNSGNTGYTQNLQGRVTLTRNTSITTVYMELSSLSSEDTAVYYCARDYSSHYYGLDVWGQGTTVTVSS VL: DIQLTQSPSFLSTSIGDRVTITCWASQDISNYLAWYQQKPGKAPKLLIFVASTLQSGVPSRFSGSGSGTEFTLTISSLQPEDFATYYCQQFNSYPLTFGGGTKVEIK | 1.1 |

May I ask what IC50 has been recorded for VV6C10-1 (antibody, V domains shown, Human variable regions with mouse constant region) VH: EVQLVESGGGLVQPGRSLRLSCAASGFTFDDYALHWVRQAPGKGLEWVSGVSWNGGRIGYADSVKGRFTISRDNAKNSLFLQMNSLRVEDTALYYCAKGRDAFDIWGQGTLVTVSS VL: EIVLTQSPATLSLSPGERATLSCRASQSVSSYLAWYQQKPGQAPRLLIYDASNRATGIPARFSGSGSGTDFTLTISSLEPEDFAFYYCQQRNNRPPFTFGPGTKVDVR ?
4.6

What value of IC50 has been reported for the following binder? VV6C10-3 (antibody, V domains shown, Human variable regions with mouse constant region) VH: QVQLVQSGAEVKKPGASVKVSCKASGFNFFHYGITWVRQAPGQGLEWMGWISTYNGDTIYAQKVQGRVTMTTDTATSTAYMELRSLRSDDTAVYYCARSEQQVDYYFYGMDVWGQGTTVTVSS VL: EIVLTQSPATLSLSPGERATLSCRASQSVSSYLAWYQQKPGQAPRLLIYDASNRATGIPARFSGSGSGTDFTLTISSLEPEDFAFYYCQQRNNRPPFTFGPGTKVDVR
0.06

Query (binder): VV6F12-11 (antibody, V domains shown, Human variable regions with mouse constant region) VH: QVQLVQSGAEVKEPGASVKISCKASGYTFTSYDIIWVRQATGQGLEWMGWMNPNSGDRGYTQNLQGRVTLTRDTSISTVYMELSSLRSEDTAVYYCARDYSNHYYGLDVWGQGTTVTVSS VL: DIQLTQSPSFLSASVGDRVTITCWASQDISNYLAWYQQKPGKAPKLLIFVASTLQSGVPSRFSGSGSGTEFTLTISSLQPEDFATYYCQQFNSYPLTFGGGTKVEIR ; field requested: IC50
2.2
